- ASSAY_PROTOCOL: ATG_M_19_CIS: Attagene CIS-FACTORIAL HepG2 Assay for M19 Transcription Factor (Internal Marker) (AID 2282939)
- ASSAY_CONDITIONS: HepG2 Attagene CIS-FACTORIAL M19 internal marker reporter; actives raise or lower the signal
Calls of active or inactive are those of the source. Rule for the calls: active = hit-call score of the fitted dose curve at least 0.9, where 1 is the maximum; inactive = score below 0.9.
Just give me one of these, please: yes (1) = active, no (0) = inactive

Check out these entries, answers already filled in.
- COMPOUND: "c1ccc(Nc2cccc3ccccc23)cc1"
  CLASS_ASSIGNMENT: "yes (1)"
- COMPOUND: "CCCCCCCCCCCCCC(=O)OC(C)C"
  CLASS_ASSIGNMENT: "no (0)"
- COMPOUND: "CCCCc1ccc(Cl)cc1"
  CLASS_ASSIGNMENT: "no (0)"
- COMPOUND: "CCCCCCCCCC(C)=O"
  CLASS_ASSIGNMENT: "no (0)"

Field: next compound
Hi, sorry to bother you, what did the test record for CCC1COC(=O)O1 (centres undefined) ?
no (0)

* * *

- ASSAY_PROTOCOL: ATG_ERE_CIS: Attagene CIS-FACTORIAL HepG2 Assay for Estrogen Response Element (ERE) (AID 2282940)
- ASSAY_CONDITIONS: HepG2 ERE cis-reporter, Attagene RNA transcript; actives raise or lower the signal
Active and inactive are the calls of the source. The calls were made as follows: active = hit-call score of the fitted dose curve at least 0.9, where 1 is the maximum; inactive = score below 0.9.
REPORTED_PROPERTY: AC50

Here's what some known entries look like.
- COMPOUND: "C=CC(=O)OCCCCCCCCCC"
  MEASUREMENT: "inactive"
- COMPOUND: "c1ccc2sc(SSN3CCOCC3)nc2c1"
  MEASUREMENT: "inactive"
- COMPOUND: "CCCCCCCCC(CO)CCCCCC (stereo not given)"
  MEASUREMENT: "inactive"
- COMPOUND: "C=CC(=O)O[C@H]1C[C@@H]2CC[C@@]1(C)C2(C)C"
  MEASUREMENT: "24.9 µM (active)"
- COMPOUND: "CC(C)[N+](C)(CCOC(=O)C1c2ccccc2Oc2ccccc21)C(C)C"
  MEASUREMENT: "inactive"
- COMPOUND: "CCCCOCC(C)O (stereo not given)"
  MEASUREMENT: "inactive"
- COMPOUND: "CC1=CC(C)C(C=O)CC1 (stereo not given)"
  MEASUREMENT: "27.2 µM (active)"
- COMPOUND: "CCCC1CCCC(=O)O1 (stereo not given)"
  MEASUREMENT: "21.3 µM (active)"
- COMPOUND: "CCCCCCCCCCCC(C)=O"
  MEASUREMENT: "1.3 µM (active)"
- COMPOUND: "CC(=O)OCC=C(C)C"
  MEASUREMENT: "inactive"

The recorded AC50 for `O=C(OCCc1ccccc1)c1ccccc1` is inactive

Briefly, AC50 measured for C=CC(C)(CCC=C(C)C)OC(=O)C=Cc1ccccc1 (stereo not given) : 17.7 µM (active)

Given item `CCCCCCO` , the value recorded as its AC50 is inactive

Recorded AC50 (compound `Clc1cc(Cl)c(Cl)c(Cl)c1Cl` ): inactive

The reported AC50 of the compound CC(C=O)c1ccccc1 (stereo not given) was inactive

* * *

- EXPERIMENTAL_SYSTEM: Agonist Androgen Response Element (ARE), AR (gene 367) (UniProt P10275)
- Sequence (P10275 whole entry, looked up): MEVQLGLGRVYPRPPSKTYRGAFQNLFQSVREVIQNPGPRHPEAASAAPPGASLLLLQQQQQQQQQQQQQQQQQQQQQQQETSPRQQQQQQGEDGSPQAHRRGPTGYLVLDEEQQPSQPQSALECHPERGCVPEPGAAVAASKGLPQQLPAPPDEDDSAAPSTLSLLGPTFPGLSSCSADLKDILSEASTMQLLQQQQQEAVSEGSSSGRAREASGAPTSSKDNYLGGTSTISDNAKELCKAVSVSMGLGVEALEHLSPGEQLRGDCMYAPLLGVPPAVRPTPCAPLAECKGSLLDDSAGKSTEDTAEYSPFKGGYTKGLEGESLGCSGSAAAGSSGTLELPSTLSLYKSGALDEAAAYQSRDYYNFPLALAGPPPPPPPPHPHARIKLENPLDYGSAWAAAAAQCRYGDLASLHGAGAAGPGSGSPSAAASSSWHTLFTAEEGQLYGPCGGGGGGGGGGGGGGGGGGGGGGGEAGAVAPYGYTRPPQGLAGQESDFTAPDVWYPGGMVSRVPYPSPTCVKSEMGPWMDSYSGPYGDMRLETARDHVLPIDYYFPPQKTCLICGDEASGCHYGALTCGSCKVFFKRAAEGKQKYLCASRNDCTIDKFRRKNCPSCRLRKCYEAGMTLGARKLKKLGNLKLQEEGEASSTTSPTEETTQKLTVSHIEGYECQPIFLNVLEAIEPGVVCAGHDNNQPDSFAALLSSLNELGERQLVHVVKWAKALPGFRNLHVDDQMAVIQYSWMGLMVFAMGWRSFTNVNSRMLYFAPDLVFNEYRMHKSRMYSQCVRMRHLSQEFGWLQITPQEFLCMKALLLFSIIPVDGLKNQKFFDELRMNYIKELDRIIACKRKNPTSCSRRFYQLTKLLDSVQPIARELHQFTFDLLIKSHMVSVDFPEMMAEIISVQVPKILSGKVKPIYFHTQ
- ASSAY_PROTOCOL: OT_AR_ARELUC_AG_1440: Odyssey Thera (OT) 24-hour CHO-K1 Luciferase Assay for Agonist Androgen Response Element (ARE) (AID 2283379)
Records with an inconclusive call do not appear. Activity calls are given as the source filed them. The calls were made as follows: active = hit-call score of the fitted dose curve at least 0.9, where 1 is the maximum; inconclusive = response in the unintended direction; inactive = score below 0.9.
Bench note: report the call from t = active, f = inactive

# example entries with known answers
- COMPOUND: "CCCCCCCCCCCCCC(=O)OC(C)C"
  CLASS_ASSIGNMENT: "t"
- COMPOUND: "N#Cc1ccc(C(c2ccc(C#N)cc2)n2cncn2)cc1"
  CLASS_ASSIGNMENT: "f"

Outcome logged for CCCCC(CC)COC(=O)/C=C/c1ccc(OC)cc1 (stereo not drawn) in this assay:
f
